# STUDY SYSTEM: T1, human TIGIT protein (human, UniProt Q495A1 22-141, limits assumed)
# T1 construct: Recombinant protein (Genentech) used in ELISA screening and as SPR analyte; also called TIGIT antigen
# T1 sequence: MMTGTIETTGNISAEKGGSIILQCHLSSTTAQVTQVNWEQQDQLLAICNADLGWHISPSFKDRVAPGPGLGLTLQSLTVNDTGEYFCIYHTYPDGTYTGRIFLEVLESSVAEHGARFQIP
# MEASUREMENT NOTES: SPR, captured mAb
Some binders, each annotated with its measured koff.
I only need the number, in s⁻¹, no unit after it.

Before answering, review these 2 worked examples.
# BINDER, koff [s⁻¹]
data = [
    ("h7E7.L1H5 (antibody, V domains shown, VH: L69I (printed L691) against h7E7.L1H1; FR/HVR pieces) VH: EVQLVQSGAEVKKPGASVKVSCKASGYTFTEYSIYWVRQAPGQRLEIIGRIDPKNGRTYYVDKFKNRATITADTSASTAYMELSSLRSEDTAVYFCTRIYGFYFDFWGQGTLVTVSS VL: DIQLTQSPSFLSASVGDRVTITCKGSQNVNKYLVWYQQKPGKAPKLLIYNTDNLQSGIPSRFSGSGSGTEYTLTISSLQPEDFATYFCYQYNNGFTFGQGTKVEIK", 0.00129),
    ("h15C8.L4H1 (antibody, V domains shown, VL: F87Y against h15C8.L1H1; FR/HVR pieces) VH: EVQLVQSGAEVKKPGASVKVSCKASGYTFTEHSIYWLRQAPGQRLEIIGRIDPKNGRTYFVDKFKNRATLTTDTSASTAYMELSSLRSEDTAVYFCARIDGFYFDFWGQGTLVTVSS VL: DIQLTQSPSFLSASVGDRVTITCKGSQNVNKYLVWYQQKPGKAPKLLIYSTDNLQSGIPSRFSGSGSGTEYTLTISSLQPEDFATYYCYQYNNGFTFGQGTKVEIK", 0.000611),
]

Input: What value of koff has been reported for the following binder? h7E7.L1H1 (antibody, V domains shown, First humanized version; FR/HVR pieces in order; also called h1.7E7.L1H1) VH: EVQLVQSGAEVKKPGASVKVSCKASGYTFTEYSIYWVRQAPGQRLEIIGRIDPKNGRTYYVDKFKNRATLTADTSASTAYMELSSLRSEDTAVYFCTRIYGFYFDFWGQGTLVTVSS VL: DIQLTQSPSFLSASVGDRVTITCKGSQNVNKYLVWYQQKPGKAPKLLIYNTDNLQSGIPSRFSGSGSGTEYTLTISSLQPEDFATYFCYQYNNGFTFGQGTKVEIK
Output: 0.000476
